system: NHERF2_2, Q15599
Sequence (Q15599 142-238): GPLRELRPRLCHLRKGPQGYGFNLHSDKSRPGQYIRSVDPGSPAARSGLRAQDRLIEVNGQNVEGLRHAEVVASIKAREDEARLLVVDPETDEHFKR
protocol: holdup assay
Parameters: key: below the threshold = too weak to quantify, mostly under pKd 3.1 to 4
assay.setup: plain residues with an end cap or a label only (N-terminal biotin on a linker: ahx)
readout.label: pKd

Form field: reported pKd of KDECVIATEV [DLL1, O00548]
below the threshold

Form field: reported pKd of ADENEQVSAV [RAPGEF6, Q8TEU7]
below the threshold

Form field: reported pKd of VNENQKEYFF [CNTNAP4, Q9C0A0]
below the threshold

Form field: reported pKd of SAPATLSSRA [PDLIM2, Q96JY6]
below the threshold

Continuing:
Form field: reported pKd of HSATSVHTSV [MTMR1, Q13613]
below the threshold

Form field: reported pKd of YNSFLSVTTV [PDZRN3, Q9UPQ7]
below the threshold

Form field: reported pKd of AKPQPVDSWV [ARVCF, O00192]
below the threshold

Form field: reported pKd of SKKNELFSNL [NHERF1, O14745]
below the threshold

Form field: reported pKd of KEYDDELTFF [USH1C, Q9Y6N9]
5.32

Form field: reported pKd of PKMKLNETSF [SHKBP1, Q8TBC3]
4.32
